Values were extracted from patent US20020111274A1.

- Test system: TRZAWR Wheat, Winter, cv Riband
- MEASUREMENT_PROTOCOL: Postemergence herbicidal evaluation, TRZAWR
- Assay type: in vivo, Triticum aestivum
- Parameters: scale not given here
- CONDITIONS_USED: 0.032 kg/ha, postemergence spray, rated about two-three weeks after treatment
PROPERTY_MEASURED: Postemergence herbicidal rating TRZAWR
Numbers only.

Cc1ccc(-n2nnc3cc(F)c(-n4c(=O)cc(C(F)(F)F)n(C)c4=O)cc32)cc1C [Example 23] = 5.5

# batch size: 3; output Postemergence herbicidal rating TRZAWR per entry
1. COC(=O)COc1ccccc1-n1nnc2cc(F)c(-n3c(=O)cc(C(F)(F)F)n(C)c3=O)cc21 [Example 35]
2. COc1ccc(C)c(-n2nnc3cc(F)c(-n4c(=O)cc(C(F)(F)F)n(C)c4=O)cc32)c1 [Example 22]
3. COc1ccc(C)cc1-n1nnc2cc(F)c(-n3c(=O)cc(C(F)(F)F)n(C)c3=O)cc21 [Example 18]

(A)
1. 5.5
2. 4.0
3. 5.5

====

- System: ECHOG Barnyardgrass
- MEASUREMENT_PROTOCOL: Preemergence herbicidal evaluation, ECHOG
- Type: in vivo, Echinochloa crus-galli, (L.) Beau
- Design: scale not given here
- CONDITIONS_USED: preemergence, rate 0.016 kg/ha
PROPERTY_MEASURED: ECHCG herbicidal rating
Numbers only.

# batch size: 6; output ECHCG herbicidal rating per entry
1. COC(=O)COc1ccccc1-n1nnc2cc(F)c(-n3c(=O)cc(C(F)(F)F)n(C)c3=O)cc21 [Example 35]
2. CCc1ccccc1-n1nnc2cc(F)c(-n3c(=O)cc(C(F)(F)F)n(C)c3=O)cc21 [Example 25]
3. C#CCOC(=O)COc1ccc(C)cc1-n1nnc2cc(F)c(-n3c(=O)cc(C(F)(F)F)n(C)c3=O)cc21 [Example 40]
4. CCc1ccc(-n2nnc3cc(F)c(-n4c(=O)cc(C(F)(F)F)n(C)c4=O)cc32)cc1COC [Example 28]
5. CCc1ccc(-n2nnc3cc(F)c(-n4c(=O)cc(C(F)(F)F)n(C)c4=O)cc32)cc1 [Example 17]
6. Cc1cc(O)ccc1-n1nnc2cc(F)c(-n3c(=O)cc(C(F)(F)F)n(C)c3=O)cc21 [Example 33]

(A)
1. 0.0
2. 0.0
3. 0.0
4. 0.0
5. 0.0
6. 0.0

# batch size: 2; output ECHCG herbicidal rating per entry
1. CCc1cccc(-n2nnc3cc(F)c(-n4c(=O)cc(C(F)(F)F)n(C)c4=O)cc32)c1 [Example 29]
2. COc1ccc(Cl)cc1-n1nnc2cc(F)c(-n3c(=O)cc(C(F)(F)F)n(C)c3=O)cc21 [Example 30]

(A)
1. 2.0
2. 1.0

# batch size: 4; output ECHCG herbicidal rating per entry
1. COC(=O)C(C)Oc1ccc(C)cc1-n1nnc2cc(F)c(-n3c(=O)cc(C(F)(F)F)n(C)c3=O)cc21 (stereo not shown) [Example 41]
2. COC(=O)COc1ccc(-n2nnc3cc(F)c(-n4c(=O)cc(C(F)(F)F)n(C)c4=O)cc32)c(C)c1 [Example 39]
3. Cc1ccc(O)cc1-n1nnc2cc(F)c(-n3c(=O)cc(C(F)(F)F)n(C)c3=O)cc21 [Example 32]
4. Cc1ccccc1-n1nnc2cc(F)c(-n3c(=O)cc(C(F)(F)F)n(C)c3=O)cc21 [Example 20]

(A)
0.0
0.0
0.0
0.0

Memo: Cc1ccc(OCC(=O)O)cc1-n1nnc2cc(F)c(-n3c(=O)cc(C(F)(F)F)n(C)c3=O)cc21 [Example 37] , reported ECHCG herbicidal rating: 0.0
